# assayed-target: A2 adenosine receptors (Rattus norvegicus)
# test-name: Inhibition of binding of [3H]N-ethylcarboxamidoadenosine to A2-adenosine receptors in rat striatal membranes
# conditions-used: read-out: Ki A2-receptors; rat striatal membranes, [3H]NECA; single determination in triplicate or average of three ± S.E.M.
Please provide measured Ki for the entries that follow.
Use nM as the unit, but write only the number.

Request the reported Ki associated with CCCn1c(=O)c2[nH]c(-c3ccc(OCC(=O)NCCNC(=O)[C@H](N)CCCCN)cc3)nc2n(CCC)c1=O
180

Request the reported Ki associated with CCCn1c(=O)c2[nH]c(-c3ccc(OCC(=O)O)cc3)nc2n(CCC)c1=O
2200

Request the reported Ki associated with CCCn1c(=O)c2[nH]c(-c3ccc(OCC(=O)NCCNC(=O)CCCCCCC(=O)NCc4cccs4)cc3)nc2n(CCC)c1=O
630

Request the reported Ki associated with Cn1c(=O)c2nc(-c3cccs3)[nH]c2n(C)c1=S
1740

----------
Please provide measured log10 Ki for the entries that follow.
# assayed-target: A2 adenosine receptors (Rattus norvegicus, UniProt P30543)
# Sequence (P30543 whole entry): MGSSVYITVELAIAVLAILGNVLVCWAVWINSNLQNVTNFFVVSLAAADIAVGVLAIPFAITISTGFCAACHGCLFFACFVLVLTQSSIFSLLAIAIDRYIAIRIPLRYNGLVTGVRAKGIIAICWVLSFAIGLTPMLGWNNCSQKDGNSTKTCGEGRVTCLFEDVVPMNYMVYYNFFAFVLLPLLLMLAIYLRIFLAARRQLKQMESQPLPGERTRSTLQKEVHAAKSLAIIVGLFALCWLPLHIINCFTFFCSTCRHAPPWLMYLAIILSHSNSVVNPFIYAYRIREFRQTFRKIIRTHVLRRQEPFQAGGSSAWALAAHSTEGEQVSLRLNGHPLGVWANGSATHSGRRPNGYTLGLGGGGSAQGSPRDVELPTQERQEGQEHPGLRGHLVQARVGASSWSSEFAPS
# test-name: Inhibition of binding of [3H]N-ethylcarboxamidoadenosine to A2-adenosine receptors in rat striatal membranes
Values are log10 of Ki in nM.

Request the reported log10 Ki associated with Cn1c(=S)c2[nH]c(C3CCCC3)nc2n(C)c1=S
4.06

Request the reported log10 Ki associated with CCCn1c(=O)c2[nH]c(-c3ccc(OCC(=O)NCCNC(=O)[C@H](N)CCCCN)cc3)nc2n(CCC)c1=S
1.67

Request the reported log10 Ki associated with CCCn1c(=O)c2[nH]c(-c3ccc(OCC(=O)NCCNC(=O)[C@@H](CCCCNC(=O)OCc4ccccc4)NC(=O)OC(C)(C)C)cc3)nc2n(CCC)c1=S
2.94

Request the reported log10 Ki associated with CCCn1c(=O)c2[nH]c(-c3ccsc3)nc2n(CCC)c1=O
2.08

Request the reported log10 Ki associated with CCCn1c(=O)c2[nH]c(-c3ccc(OCC(=O)NCCN(C)C)cc3)nc2n(CCC)c1=O
0.70

Request the reported log10 Ki associated with Cn1c(=O)c2[nH]c(C3CCCC3)nc2n(C)c1=S
3.14

Request the reported log10 Ki associated with CCCn1c(=O)c2[nH]c(-c3ccc(OCC(=O)NCCN(C)C)cc3)nc2n(CCC)c1=S
1.45

Request the reported log10 Ki associated with CCCn1c(=O)c2[nH]c(-c3ccc(OCC(=O)NCCNC(=O)[C@H](N)CCCCNC(=O)OCc4ccccc4)cc3)nc2n(CCC)c1=O
2.28

Request the reported log10 Ki associated with Cn1c(=S)c2[nH]c(C3CCCC3)nc2n(C)c1=O
3.95

----------
# assayed-target: A1 adenosine receptors (Rattus norvegicus)
# Construct: A1 adenosine receptors in rat cerebral cortical membranes; from tissue; host or cells: rat cerebral cortex membranes
# Sequence (P25099 1-326): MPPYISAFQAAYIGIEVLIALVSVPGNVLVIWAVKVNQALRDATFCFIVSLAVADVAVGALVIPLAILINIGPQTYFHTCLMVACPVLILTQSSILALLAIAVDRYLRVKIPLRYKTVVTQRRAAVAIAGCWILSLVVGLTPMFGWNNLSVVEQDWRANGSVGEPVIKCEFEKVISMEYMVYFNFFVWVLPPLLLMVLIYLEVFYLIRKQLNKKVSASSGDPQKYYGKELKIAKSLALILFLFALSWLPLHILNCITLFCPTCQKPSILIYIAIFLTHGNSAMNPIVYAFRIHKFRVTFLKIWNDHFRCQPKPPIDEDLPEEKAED
# test-name: Inhibition of binding of [3H]N6-phenylisopropyladenosine to A1 adenosine receptors in rat cerebral cortical membranes
# conditions-used: ratio of A2 (rat striatum) to A1 (rat cortex) Ki
Please provide measured Ki (A2)/Ki (A1) for the entries that follow.
Please give only the number in your answer, with no unit.

Request the reported Ki (A2)/Ki (A1) associated with CCCn1c(=O)c2[nH]c(-c3ccc(OCC(=O)NCCNC(=O)[C@H](N)CCCCN)cc3)nc2n(CCC)c1=O
210

Request the reported Ki (A2)/Ki (A1) associated with CCCn1c(=O)c2[nH]c(-c3ccc(OCC(=O)NCCNC(=O)CCCCCCC(=O)ON4C(=O)CCC4=O)cc3)nc2n(CCC)c1=O
56

Request the reported Ki (A2)/Ki (A1) associated with CCCn1c(=O)c2[nH]c(-c3ccc(OCC(=O)NCCNC(=O)Cc4cccs4)cc3)nc2n(CCC)c1=O
8.1

Request the reported Ki (A2)/Ki (A1) associated with CCCn1c(=O)c2[nH]c(-c3ccc(OCC(=O)NCCNC(=O)[C@H](N)CCCCN)cc3)nc2n(CCC)c1=S
3.6
